Heads up, these compounds all have pIC50 values measured for PDE1A (Homo sapiens, UniProt P54750).
# pIC50 is unitless: minus log10 of the molar concentration; print number only

INSERT INTO measurements (compound, value_reported) VALUES
  ('COc1ccc2c(N3CC[C@H]4OCC[C@H]43)ncnc2c1OC (single isomer, unassigned)', 5.49);

Note: attention shifts to another entry.
Entry COc1ccc2c(N3CC[C@@H]4OCC[C@@H]43)ncnc2c1OC (single isomer, unassigned) — recorded pIC50 = 6.80

====

- SYSTEM TESTED: PDE1B (Homo sapiens, UniProt Q01064)
- Sequence (Q01064 whole entry): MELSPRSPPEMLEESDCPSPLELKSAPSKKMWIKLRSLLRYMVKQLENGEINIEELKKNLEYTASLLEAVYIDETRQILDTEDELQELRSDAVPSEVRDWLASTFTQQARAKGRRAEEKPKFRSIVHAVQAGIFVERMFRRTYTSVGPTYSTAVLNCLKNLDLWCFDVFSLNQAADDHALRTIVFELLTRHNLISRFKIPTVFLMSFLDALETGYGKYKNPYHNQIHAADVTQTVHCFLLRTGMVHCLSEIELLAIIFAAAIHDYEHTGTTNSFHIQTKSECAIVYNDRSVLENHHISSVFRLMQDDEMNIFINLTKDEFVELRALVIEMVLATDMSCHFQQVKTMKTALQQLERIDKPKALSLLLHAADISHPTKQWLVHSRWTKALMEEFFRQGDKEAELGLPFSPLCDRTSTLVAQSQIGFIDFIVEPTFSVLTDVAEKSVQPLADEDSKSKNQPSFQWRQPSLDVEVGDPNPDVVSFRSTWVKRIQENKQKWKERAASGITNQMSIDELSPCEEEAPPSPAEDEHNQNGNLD
PROPERTY LABEL: pIC50
# pIC50 is unitless: minus log10 of the molar concentration; print number only

Entry COc1ccc2c(N3CC[C@H]4OCC[C@H]43)ncnc2c1OC (single isomer, unassigned) [Compound 2] — recorded pIC50 = 5.43
